Hello, the source for this data is patent US20260042731A1, in case you need it.

Record form. Attribute: pest or weed control at 560 g/ha. Fill in for each entry.
tested on: glyphosate resistant Conyza canadensis (L.) (ERICA), horseweed; assay: Postemergence herbicide evaluation, growth of Conyza canadensis (ERICA); type: in vivo; conditions: Erigeron canadensis, post-emergence, 168 h, 560 g ae/ha, 7 DAA; read-out: Ave. ERICA, percent reduction in plant size relative to the untreated control
I only need the number, in %, no unit after it.

Task: Look up pest or weed control at 560 g/ha for this compound: `O=C(COc1ccc(Cl)cc1Cl)O/N=C/c1cccnc1`
Output: 82.5

Task: Another compound to look at: `COc1ncc(OC(=O)COc2ccc(Cl)cc2Cl)cn1`
Output: 85

Task: Another compound to look at: `Cc1nccc(NC(=O)COc2ccc(Cl)cc2Cl)c1C`
Output: 60

Task: Another compound to look at: `C/C(=N\OC(=O)COc1ccc(Cl)cc1Cl)c1cccnc1`
Output: 82.5

Task: Another compound to look at: `C/C(=N\OC(=O)COc1ccc(Cl)cc1Cl)c1ccccc1Cl`
Output: 75

Task: Another compound to look at: `N/C(=N\OC(=O)COc1ccc(Cl)cc1Cl)c1ccccc1`
Output: 75

Task: Another compound to look at: `C/C(=N\OC(=O)COc1ccc(Cl)cc1Cl)c1ccccc1`
Output: 73

Task: Another compound to look at: `O=C(COc1ccc(Cl)cc1Cl)Nc1c(Cl)c(F)nc(F)c1Cl`
Output: 10

Task: Another compound to look at: `O=C(COc1ccc(Cl)cc1Cl)Nc1nccs1`
Output: 75

Task: Another compound to look at: `O=C(COc1ccc(Cl)cc1Cl)Nc1cc[nH]n1`
Output: 80

Task: Another compound to look at: O=C(COc1ccc(Cl)cc1Cl)Nc1ccon1 [Compound D2]
Output: 73

Task: Another compound to look at: `CC(C)CONC(=O)COc1ccc(Cl)cc1Cl`
Output: 85

Task: Another compound to look at: `O=C(COc1ccc(Cl)cc1Cl)O/N=C1\CCCc2ccccc21`
Output: 72.5

Task: Another compound to look at: `N/C(=N\OC(=O)COc1ccc(Cl)cc1Cl)c1cccnc1`
Output: 65

Task: Another compound to look at: O=C(COc1ccc(Cl)cc1Cl)Oc1cccnn1 [Compound E2]
Output: 73

----------
system: Chenopodium album (CHEAL), common lambsquarters; assay: Postemergence herbicide evaluation, growth of Chenopodium album (CHEAL); type: in vivo; details: Chenopodium album, post-emergence, 504 h, 560 g ae/ha, 21 DAA; read-out: Ave. CHEAL, percent reduction in plant size relative to the untreated control
quantityName: pest or weed control at 560 g/ha
For clarity, give the value followed by its unit.

Task: Look up pest or weed control at 560 g/ha for this molecule: O=C(COc1ccc(Cl)cc1Cl)Oc1ncc(Cl)cn1 [Compound E13]
Output: 100%

Task: Another molecule to look at: O=C(COc1ccc(Cl)cc1Cl)Oc1cccnn1 [Compound E2]
Output: 94%

Task: Another molecule to look at: N/C(=N\OC(=O)COc1ccc(Cl)cc1Cl)c1cccnc1 [Compound A4]
Output: 83%

Task: Another molecule to look at: O=C(COc1ccc(Cl)cc1Cl)Oc1cncnc1 [Compound E14]
Output: 100%

Task: Another molecule to look at: N/C(=N\OC(=O)COc1ccc(Cl)cc1Cl)c1ccccc1 [Compound A3]
Output: 87%

Task: Another molecule to look at: C/C(=N\OC(=O)COc1ccc(Cl)cc1Cl)c1ccccc1Cl [Compound A24]
Output: 94.5%

Task: Another molecule to look at: O=C(COc1ccc(Cl)cc1Cl)O/N=C1\CCCc2ccccc21 [Compound A25]
Output: 75%

Task: Another molecule to look at: C[N+](C)(C)CCOC(=O)COc1ccc(Cl)cc1Cl.[Cl-] [Compound E3]
Output: 77%

Task: Another molecule to look at: O=C(COc1ccc(Cl)cc1Cl)O/N=C/c1ccccn1 [Compound A32]
Output: 97.5%

Task: Another molecule to look at: COc1ccc(/C=N/OC(=O)COc2ccc(Cl)cc2Cl)cc1 [Compound A31]
Output: 96%
